The following molecules are listed with their measured Kd values.
system-name: IL17A (Homo sapiens, UniProt Q16552)
Sequence (Q16552 24-155): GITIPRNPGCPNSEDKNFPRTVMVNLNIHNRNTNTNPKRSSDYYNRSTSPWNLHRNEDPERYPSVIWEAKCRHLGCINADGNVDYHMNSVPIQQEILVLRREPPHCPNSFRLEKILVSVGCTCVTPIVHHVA
test-details: Surface Plasmon Resonance (SPR) analysis of compound interactions with IL17A
conditions: SPR binding to IL17A

[[record]]
entry_smiles = "COC(=O)[C@@H]1CCCCNC(=O)CCCNC(=O)[C@@H](Cc2ccc(NC(=O)[C@H](Cc3ccccc3F)NC(=O)c3ccccc3)cc2)NC(=O)CC2(CCCC2)CC(=O)N1"
measured_parameter = "Kd"
recorded_result = "100 to 1000 nM"

[[record]]
entry_smiles = "O=C1CNC(=O)[C@@H](Cc2ccc(NC(=O)[C@H](Cc3ccccc3Cl)NC(=O)C3CCCCC3)cc2)NC(=O)CC2(CCCC2)CC(=O)NCCCCCN1"
measured_parameter = "Kd"
recorded_result = "< 100 nM"

[[record]]
entry_smiles = "O=C1CNC(=O)[C@@H](Cc2ccc(NC(=O)[C@H](Cc3ccccc3Cl)NC(=O)c3cnccn3)cc2)NC(=O)CC2(CCCC2)CC(=O)NCCCCCN1"
measured_parameter = "Kd"
recorded_result = "100 to 1000 nM"

[[record]]
entry_smiles = "O=C1CNC(=O)[C@@H](Cc2ccc(NC(=O)[C@H](Cc3ccccc3Cl)NC(=O)Cc3ccccc3)cc2)NC(=O)CC2(CCCC2)CC(=O)NCCCN1"
measured_parameter = "Kd"
recorded_result = "< 100 nM"


Consider now this further molecule.
What Kd value was documented for this molecule, O=C1CCCNC(=O)[C@@H](Cc2ccc(NC(=O)[C@H](Cc3ccccc3Cl)NC(=O)Cc3ccccc3)cc2)NC(=O)CC2(CCCC2)CC(=O)N(CCO)CCCCCN1 ?
< 100 nM
